Tested on: LXRa homodimer (NR concentration 270 nM)
assay-explanation: PBM binding z-score (relative to random genomic background probes); higher = stronger binding; sequences stand for … in GC…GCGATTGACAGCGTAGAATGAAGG
PBM binding z-score reference
Keep the answer to the number alone.

[
  {
    "query-sequence": "ATCTCTAGGTAACCAATTTCAGTGAATGCCGAAC",
    "PBM binding z-score": 0.561
  },
  {
    "query-sequence": "ATATGTAGGTTAAGGGTCCTTCAGGTTGGTTCGC",
    "PBM binding z-score": 0.278
  },
  {
    "query-sequence": "ATATGTAGGTTACATCCGTGTCATTCAGGCTATG",
    "PBM binding z-score": 0.794
  },
  {
    "query-sequence": "TCGAGTAGGCTACCAATGGGGCATTCAGCTTTCT",
    "PBM binding z-score": -1.06
  },
  {
    "query-sequence": "ACAGGCAGGTGAGTGAAGGTAACTCAGCTGGACG",
    "PBM binding z-score": -0.455
  }
]

I have this sequence here, TCATATAGGTAAACAGGTGAAAGTACGTAAGTTA , and I need its recorded PBM binding z-score.
0.233

I have this sequence here, CAAACTTGGTCACGAAAGGTCAAAGTCGAATGAC , and I need its recorded PBM binding z-score.
5.72

I have this sequence here, AGAACGAGGTTACCAAAGATCAGGGAAACGCTTG , and I need its recorded PBM binding z-score.
-0.119

I have this sequence here, CGTCGAAGTTCAACTAAGGTAACGTAAAGCACGC , and I need its recorded PBM binding z-score.
1.23

I have this sequence here, CTACCAAGGTGAACAAGGTCGTTGCTTACTATTC , and I need its recorded PBM binding z-score.
0.37

I have this sequence here, ACGGACAGGTGATGAAGGTAACTCAGGCTATCAT , and I need its recorded PBM binding z-score.
-0.0768

I have this sequence here, CGAACGAGGGCATGAGTTTATAGCAAATGCCGAT , and I need its recorded PBM binding z-score.
-0.244
